test: Ratio of drug uptake in thalamus to cerebellum in anesthetized cynomolgus monkey after 155 mins postinjection; format: ADME, organism-based, Macaca fascicularis; details: in vivo
Measured Metric: Ratio
Give your answer as a number; write no unit.

Below are worked cases with known answers.
Molecule: O=C(OCC[18F])C1C2CCC(CC1c1cccc(/C=C\I)c1)N2 (stereo not given)
Ratio: 1.8
//
Molecule: O=C(OCCC[18F])C1C2CCC(CC1c1cccc(/C=C\Br)c1)N2 (stereo not given)
Ratio: 1.6
//
Molecule: O=C(OCC[18F])C1C2CCC(CC1c1cccc(/C=C\Br)c1)N2 (stereo not given)
Ratio: 1.7

Answer with the recorded Ratio of O=C(OCC[18F])C1C2CCC(CC1c1ccc(/C=C\I)cc1)N2 (stereo not given) only.
2.7

Answer with the recorded Ratio of O=C(OCCC[18F])C1C2CCC(CC1c1cccc(/C=C\I)c1)N2 (stereo not given) only.
1.6
